Catalogue of pEC50 readings, one per entry.
System tested: human FGFR2b protein (recombinant, coated on ELISA plates) (human) (UniProt P21802)
Sequence (P21802 other isoform, or with tags, fused parts or gaps limits assumed): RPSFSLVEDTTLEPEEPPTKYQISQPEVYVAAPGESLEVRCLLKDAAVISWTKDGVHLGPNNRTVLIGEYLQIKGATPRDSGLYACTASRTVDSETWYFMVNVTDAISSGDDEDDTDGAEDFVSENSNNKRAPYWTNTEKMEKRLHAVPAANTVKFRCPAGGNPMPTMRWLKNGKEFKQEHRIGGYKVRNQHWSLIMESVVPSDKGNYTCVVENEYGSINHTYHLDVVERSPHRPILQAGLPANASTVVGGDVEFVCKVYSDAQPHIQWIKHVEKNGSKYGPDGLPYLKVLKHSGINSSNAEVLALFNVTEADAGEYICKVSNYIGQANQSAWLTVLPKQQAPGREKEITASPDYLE
Measurement protocol: ELISA, plate-coated human FGFR2b
Scale note: pEC50 = -log10(concentration in M).

Worked set:
{"Binder": "BGAh9179 (antibody, human IgG1, kappa, V domains shown) VH: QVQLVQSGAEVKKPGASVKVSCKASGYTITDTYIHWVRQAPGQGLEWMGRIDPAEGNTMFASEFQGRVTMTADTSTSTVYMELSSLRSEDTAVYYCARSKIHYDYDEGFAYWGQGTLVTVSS VL: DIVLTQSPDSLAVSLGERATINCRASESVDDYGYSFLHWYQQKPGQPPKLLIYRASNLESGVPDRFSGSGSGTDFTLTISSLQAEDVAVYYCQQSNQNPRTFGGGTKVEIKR", "Endpoint name": "pEC50", "Value observed": 10.29}
{"Binder": "BGAh9239 (antibody, human IgG1, kappa, V domains shown) VH: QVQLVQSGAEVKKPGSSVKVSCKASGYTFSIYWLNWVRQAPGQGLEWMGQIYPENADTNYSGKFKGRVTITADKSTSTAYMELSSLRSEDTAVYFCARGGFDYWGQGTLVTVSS VL: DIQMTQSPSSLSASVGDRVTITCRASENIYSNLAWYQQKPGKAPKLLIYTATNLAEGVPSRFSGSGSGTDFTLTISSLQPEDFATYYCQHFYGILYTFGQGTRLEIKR", "Endpoint name": "pEC50", "Value observed": 10.51}
{"Binder": "BGAm1823 (antibody, V domains shown) VH: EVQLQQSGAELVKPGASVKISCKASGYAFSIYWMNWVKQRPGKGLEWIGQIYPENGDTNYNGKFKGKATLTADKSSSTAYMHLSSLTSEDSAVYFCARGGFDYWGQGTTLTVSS VL: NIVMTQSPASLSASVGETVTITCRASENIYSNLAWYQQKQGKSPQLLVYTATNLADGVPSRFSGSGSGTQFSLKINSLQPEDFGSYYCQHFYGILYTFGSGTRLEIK", "Endpoint name": "pEC50", "Value observed": 10.35}

Lab note: BGAm1371 (antibody, V domains shown) VH: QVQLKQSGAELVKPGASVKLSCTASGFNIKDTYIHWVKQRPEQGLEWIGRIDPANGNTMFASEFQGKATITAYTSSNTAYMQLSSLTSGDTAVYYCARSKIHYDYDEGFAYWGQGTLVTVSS VL: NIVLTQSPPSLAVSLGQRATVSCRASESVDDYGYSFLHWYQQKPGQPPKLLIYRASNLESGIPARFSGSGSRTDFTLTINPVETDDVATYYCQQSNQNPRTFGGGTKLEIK gave pEC50 of 10.51
